Target: human PDE9A (Homo sapiens, UniProt O76083)
Construct: expressed in transfected cells; host or cells: AD293 (transient transfection)
Sequence (O76083 whole entry): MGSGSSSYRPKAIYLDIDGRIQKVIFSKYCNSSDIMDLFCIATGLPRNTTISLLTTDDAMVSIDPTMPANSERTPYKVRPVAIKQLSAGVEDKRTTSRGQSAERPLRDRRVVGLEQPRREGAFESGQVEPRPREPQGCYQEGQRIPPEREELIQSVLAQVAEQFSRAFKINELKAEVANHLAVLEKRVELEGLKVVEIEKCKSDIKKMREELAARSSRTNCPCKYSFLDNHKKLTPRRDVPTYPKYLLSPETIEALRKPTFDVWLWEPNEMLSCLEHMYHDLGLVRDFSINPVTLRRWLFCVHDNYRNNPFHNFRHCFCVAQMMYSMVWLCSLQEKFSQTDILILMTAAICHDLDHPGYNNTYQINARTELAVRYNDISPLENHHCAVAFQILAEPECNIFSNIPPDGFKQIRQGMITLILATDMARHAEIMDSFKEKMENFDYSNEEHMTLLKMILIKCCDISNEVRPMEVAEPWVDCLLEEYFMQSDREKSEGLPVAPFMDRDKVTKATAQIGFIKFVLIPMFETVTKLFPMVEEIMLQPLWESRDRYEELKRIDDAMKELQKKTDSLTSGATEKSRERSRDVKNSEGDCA
Test: Phosphodiesterase activity, AD293 cells transiently transfected with human PDE9A
Type: biochemical
Settings: 10 µM compound; read-out: Percentage inhibition at 10µM (PDE9A)
RESULT_TYPE: inhibition at 10 µM
Form field: result (number plus unit)

Query string: Report inhibition at 10 µM for "COc1ccc(-c2cc(-c3ccco3)nc(N)c2C#N)cc1" please.
Result string: 2%

Query string: Report inhibition at 10 µM for "N#Cc1c(-c2ccccc2F)cc(-c2ccccc2F)nc1N" please.
Result string: 0%

Query string: Report inhibition at 10 µM for "COc1ccccc1-c1cc(-c2ccc(O)cc2)nc(N)c1C#N" please.
Result string: 9%
